For each of the compounds below, state its MIC.
Tested on: pathogenic bacteria
Test: MIC by microdilution broth method (NCCLS M7-A4), in vitro antibacterial activity
Type: cell-based
Conditions: Staphylococcus aureus, Organism A: Staphylococcus aureus OC4172; read-out: MIC

# input Please tell me: MIC of "C[C@H]1COc2c(N3CCC/C(=C(/Cl)CN)CC3)c(F)cc3c(=O)c(C(=O)O)cn1c23" , system pathogenic bacteria?
# output 0.5 µg/mL

# input Item: "COc1c(N2CCC/C(=C(/Cl)CN)C2)c(F)cc2c(=O)c(C(=O)O)cn(C3CC3)c12"
# output 0.25 µg/mL

# input Item: "C[C@H]1COc2c(N3CCC/C(=C(\F)CN)C3)c(F)cc3c(=O)c(C(=O)O)cn1c23"
# output ≤ 0.015 µg/mL

# input Item: "C[C@H]1COc2c(N3CC(=C(Cl)CN)C3)c(F)cc3c(=O)c(C(=O)O)cn1c23"
# output 0.12 µg/mL

* * *

System: pathogenic bacteria
Experiment: MIC by microdilution broth method (NCCLS M7-A4), in vitro antibacterial activity
Type: cell-based
Details: Streptococcus pneumoniae, Organism B: fluoroquinolone-resistant clinical isolate of Streptococcus pneumoniae (QRDR amino acid substitutions)
Sorting guide: entries reporting MIC beneath 2 µg/mL go in the Criterion met pile, the rest go in the Criterion not met pile.

# input Consider the compound NC/C(Cl)=C1/CCCN(c2cc3c(cc2F)c(=O)c(C(=O)O)cn3C2CC2)C1 [Compound 257] . Is its MIC strictly less than 2 µg/mL?
# output Criterion met

# input Item: C=C(C)CC(CN)=C1CCN(c2c(F)cc3c(=O)c(C(=O)O)cn(C4CC4)c3c2OC)CC1 [Compound 202]
# output Criterion not met

# input Item: O=C(O)c1cn(-c2ccc(F)cc2F)c2nc(N3CCC(=CCO)CC3)c(F)cc2c1=O [Compound 185]
# output Criterion not met

# input Item: Cc1c(F)c(N2CCC/C(=C(\F)CN)C2)cc2c1c(=O)c(C(=O)O)cn2C1CC1 [Compound 424]
# output Criterion met

# input Item: COc1c(N2CC(=C(Cl)CO)C2)c(F)cc2c(=O)c(C(=O)O)cn([C@@H]3C[C@@H]3F)c12 [Compound 363]
# output Criterion not met

# input Item: O=C(O)c1cn(C2CC2)c2nc(N3CCC(=C(F)CO)CC3)c(F)cc2c1=O [Compound 172]
# output Criterion not met

# input Item: C[C@H]1COc2c(N3CC(=C(Cl)CO)C3)c(F)cc3c(=O)c(C(=O)O)cn1c23 [Compound 362]
# output Criterion not met

# input Item: COc1c(N2CCC/C(=C(\F)CN)C2)c(F)c(C)c2c(=O)c(C(=O)O)cn(C3CC3)c12 [Compound 458]
# output Criterion met

# input Item: NCC(Cl)=C1CN(c2nc3c(cc2F)c(=O)c(C(=O)O)cn3C2CC2)C1 [Compound 81]
# output Criterion met

# input Item: CC(CN)=C1CCN(c2c(F)cc3c(=O)c(C(=O)O)cn4c3c2OCC4C)CC1 (stereo not shown) [Compound 9]
# output Criterion not met

# input Item: NC/C(F)=C1/CCCN(c2c(F)cc3c(=O)c(C(=O)O)cn(C4CC4)c3c2OC(F)F)C1 [Compound 259]
# output Criterion met

# input Item: CCOC(=O)OCC(F)=C1CCN(c2nc3c(cc2F)c(=O)c(C(=O)O)cn3C2CC2)CC1 [Compound 179]
# output Criterion not met

# input Item: Cc1c(N2CCC(=C(Cl)CN)CC2)c(F)cc2c(=O)c(C(=O)O)cn(C3CC3)c12 [Compound 371]
# output Criterion met

# input Item: CN(C)CCNCC(Cl)=C1CCN(c2nc3c(cc2F)c(=O)c(C(=O)O)cn3C2CC2)CC1 [Compound 177]
# output Criterion not met

# input Item: C[C@H]1CN(c2nc3c(cc2F)c(=O)c(C(=O)O)cn3C2CC2)C/C(=C(/F)CN)CO1 [Compound 499]
# output Criterion not met
